The reported numbers originate from PubChem BioAssay.

# System: Carbonic anhydrase 2 (Homo sapiens)
# Protocol: CAII small-molecule binders, profiling panel, biochemical, small-molecule microarray, Alexa647-labelled CAII (AID 1122)
# Condition label: CAII-A647 binding fluorescence, higher = more signal
Readout: composite z-score

- CCOC(=O)C[C@H]1[C@H](OC(=O)c2ccccc2-c2ccccc2)[C@@H](NC(=O)CC(C)C)c2cc(OCCCO)ccc2N1C(=O)Cc1ccc(OC)cc1: -0.132
- C=CCC(OC(C)=O)[C@@H]1[C@@H](N(Cc2ccc(-c3ccccc3)cc2)C(=O)c2ccc(-c3ccccc3)cc2)c2cc(OCCCO)ccc2N1C(=O)Cc1ccc2ccccc2c1 (stereo partly drawn): 0.002
- COc1cc2c(cc1O)C(C1CC1)N(Cc1sc3ccccc3c1Cl)CC2 (stereo not drawn): 0.76

----------
# System: Dickkopf-related protein 1 (Homo sapiens)
# Protocol: DKK1 binders on small-molecule microarrays, primary screen, biochemical, small-molecule microarray, 635 nm fluorescence scan (AID 1106);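 further: score merges emission near 667 nm with signal to noise over three replicate slides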
# Condition label: DKK1 binding, higher = more signal
Recorded composite z-score values for a group of molecules are listed next.
Readout: composite z-score

• CCOC(=O)C[C@H]1[C@H](OC(=O)c2ccc(C(=O)c3ccccc3)cc2)[C@@H](NC(=O)c2ccccc2)c2cc(OCCCO)ccc2N1C(=O)Cc1ccc(OC)cc1 = -0.0269
• CO[C@H]1O[C@H](CO)[C@@H](OC(=O)Nc2ccc(C(F)(F)F)cc2)[C@H](OC(=O)Nc2ccc3c(c2)OCO3)[C@@H]1OC(=O)Nc1ccc2c(c1)OCO2 = 0.711
• C[C@@]1([C@@H](NC(=O)c2ccc(-c3ccccc3)cc2)c2ccc(Cl)cc2)C[C@H]1C1CCCCC1 = -0.131
• CCOC(=O)C1=C[C@@H](C(C)(C)C)N(S(=O)(=O)c2ccc(C)cc2)[C@H]1c1ccc(F)cc1 = 0.402
• COc1ccc([Si](C)(C)[C@H]2[C@H](CC(=O)N3Cc4ccccc4C[C@H]3CO)O[C@@]3(C(=O)N(Cc4cccc(N5CCC5=O)c4)c4ccccc43)[C@@H]2C)cc1 = 1.26
• O[C@@H](Cc1ccccc1)[C@H]1C2C=CCCC=C2CN1Cc1cccc(Cl)c1 (some centres undefined) = 0.496
• COc1ccccc1CN1C(=O)c2ccccc2[C@@H](C(=O)NC2CC2)[C@@H]1c1ccc(CO)cc1 = 1.23
• CC(=O)n1cc(C(O)C2C=CC3C(=O)N(c4ccccc4)C(=O)C3N2Nc2ccc([N+](=O)[O-])cc2)c2ccccc21 (centres undefined) = -0.113
• CC(C)N1C(=O)[C@@]2(Cc3ccccc31)c1ccccc1C(=O)N(Cc1ccccc1Cl)[C@H]2c1ccc(CO)cc1 = -0.979
• C=C(CCCC)/C(=C/C[C@@H](OC(=O)c1ccncc1)c1ccc(OCCO)cc1)c1cc(C(=O)OC)ccc1OC = 0.135
• C=CCOC(=O)[C@@H]1[C@H]2C(=O)O[C@H](c3ccccc3)[C@H](c3ccccc3)N2[C@H](c2ccc(OCCOC(=O)[C@H]3C[C@H]4C(=O)N5CCC[C@H]5C(=O)N4[C@H]3c3ccc(O)cc3)cc2)[C@@]12C(=O)Nc1ccc(I)cc12 = 0.986
• CCC(CC)C(O)C1C=CC2C(=O)NC(=O)C2N1Nc1ccc(Cl)cc1Cl (centres undefined) = -0.267
• C=CC[C@]1(C(=O)NCCCOC)N=C(c2ccc(OCCCO)cc2)O[C@H]1c1ccccc1CN=[N+]=[N-] = 0.496
• CN(C)CCCCCCNC(=O)[C@H]1C[C@H]2C(=O)N[C@@H](CCCCN)C(=O)N2[C@H]1c1cccc(OCCO)c1 = 2.49
